Measured values drawn from paper PMC7069974 for this set.

# Tested target: His-truncXPA-StrepII (human, UniProt P23025 98-239)
# Sequence (P23025 98-239): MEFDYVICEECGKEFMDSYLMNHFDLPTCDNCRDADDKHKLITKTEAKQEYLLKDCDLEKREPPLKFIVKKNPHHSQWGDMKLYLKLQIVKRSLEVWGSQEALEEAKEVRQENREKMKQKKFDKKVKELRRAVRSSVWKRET
# Protocol details: EMSA; EMSA: 8 nM DNA, 20 mM HEPES pH 7.5, 150 mM NaCl, 5 mM DTT, 0.5 mg/ml BSA, 5% glycerol, 25 min at room temperature; gel 5% native, 0.5x TBE, 4 C. AFM: 100 nM DNA, 1-4 uM XPA (ND538)
# Assay context: protein: recombinant, tags: N-terminal His, label: 5'-6FAM on bottom strand, blunt
Outcome measure: Kd (nM)
The figure you give is taken to be in nM; do not add the unit.

# count of solved cases: 2
>>> result("AAF37 (dsDNA, dG-C8-AAF at G14 of top strand; 5'-phosphate top strand) DNA 1: CCGAGTCATTCCTGCAGCGAGTCCATGGGAGTCAAAT DNA 2: ATTTGACTCCCATGGACTCGCTGCAGGAATGACTCGG")
189
>>> result("ND37 (dsDNA, 5'-phosphate top strand) DNA 1: CCGAGTCATTCCTGCAGCGAGTCCATGGGAGTCAAAT DNA 2: ATTTGACTCCCATGGACTCGCTGCAGGAATGACTCGG")
269

// next entry
Recorded Kd of CPD37 (dsDNA, CPD T<>T at T21-T22 of top strand; 5'-phosphate top strand) DNA 1: CCGAGTCATTCCTGCAGCGATTCCATGGGAGTCAAAT DNA 2: ATTTGACTCCCATGGAATCGCTGCAGGAATGACTCGG , please.
269
